Cited source for all entries: PubChem BioAssay AID2060622

- Test system: 242566-281-R-J2-PDC complex spheroid viability;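 further: spheroids exposed to compounds for 7 days before readout; 100% = DMSO vehicle control wells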
- assay-comment: Anticancer human tumor 242566-281-R-J2-PDC patient-derived pancreatic carcinoma cell line growth inhibition [CLK]
- condition-context: second compound 1 µM; first compound 0.316 µM; stronger effect = lower value
reported-property: viability, T/C (%)
Give the number; % is assumed, so skip it.

Please indicate viability, T/C recorded for O=C(c1cc(Cc2n[nH]c(=O)c3ccccc23)ccc1F)N1CCN(C(=O)C2CC2)CC1 + CNC(=O)c1ccc(Nc2nc(OC3CCCC3)c3c(-c4ccc5nc(C)oc5c4)c[nH]c3n2)c(OC)c1 65.5

Please indicate viability, T/C recorded for O=c1[nH]cc(F)c(=O)[nH]1 + CN1CCN(c2cc(C(=O)Nc3cc4cc(-c5cnn(C)c5)ccc4cn3)ccn2)CC1 3.93

Please indicate viability, T/C recorded for COC1C=CCC(C)C(C)S(=O)(=O)NC(=O)c2ccc3c(c2)N(CC2CCC21)CC1(CCCc2cc(Cl)ccc21)CO3 (stereo unspecified) + CNC(=O)c1ccc(Nc2nc(OC3CCCC3)c3c(-c4ccc5nc(C)oc5c4)c[nH]c3n2)c(OC)c1 38.5

Please indicate viability, T/C recorded for CC(=O)O[C@H]1C(=O)[C@@]2(C)[C@H]([C@H](OC(=O)c3ccccc3)[C@]3(O)C[C@H](OC(=O)[C@H](O)[C@@H](NC(=O)c4ccccc4)c4ccccc4)C(C)=C1C3(C)C)[C@]1(OC(C)=O)CO[C@@H]1C[C@@H]2O + CNC(=O)c1ccc(Nc2nc(OC3CCCC3)c3c(-c4ccc5nc(C)oc5c4)c[nH]c3n2)c(OC)c1 52.2

Please indicate viability, T/C recorded for COc1c(OCCCN2CCOCC2)ccc2c3n(c(=NC(=O)c4cnc(N)nc4)nc12)CCN3 + CN1CCN(c2cc(C(=O)Nc3cc4cc(-c5cnn(C)c5)ccc4cn3)ccn2)CC1 1.83

Please indicate viability, T/C recorded for O=C(c1cc(Cc2n[nH]c(=O)c3ccccc23)ccc1F)N1CCN(C(=O)C2CC2)CC1 + CN1CCN(c2cc(C(=O)Nc3cc4cc(-c5cnn(C)c5)ccc4cn3)ccn2)CC1 4.81

Please indicate viability, T/C recorded for CCCS(=O)(=O)Nc1ccc(F)c(C(=O)c2c[nH]c3ncc(-c4ccc(Cl)cc4)cc23)c1F + CNC(=O)c1ccc(Nc2nc(OC3CCCC3)c3c(-c4ccc5nc(C)oc5c4)c[nH]c3n2)c(OC)c1 66.7

Please indicate viability, T/C recorded for CCc1c2c(nc3ccc(O)cc13)-c1cc3c(c(=O)n1C2)COC(=O)[C@]3(O)CC + CNC(=O)c1ccc(Nc2nc(OC3CCCC3)c3c(-c4ccc5nc(C)oc5c4)c[nH]c3n2)c(OC)c1 3.17

Please indicate viability, T/C recorded for COc1ccc([C@@H](O)c2cc(-c3ncnc4cc(N5CCOCC5)ccc34)c(F)cc2Cl)nn1 + CN1CCN(c2cc(C(=O)Nc3cc4cc(-c5cnn(C)c5)ccc4cn3)ccn2)CC1 4.05

Please indicate viability, T/C recorded for CCN1CCN(Cc2ccc(Nc3ncc(F)c(-c4cc(F)c5nc(C)n(C(C)C)c5c4)n3)nc2)CC1 + CNC(=O)c1ccc(Nc2nc(OC3CCCC3)c3c(-c4ccc5nc(C)oc5c4)c[nH]c3n2)c(OC)c1 134

Please indicate viability, T/C recorded for Nc1ccn(C2OC(CO)C(O)C2(F)F)c(=O)n1 (stereo unspecified) + CNC(=O)c1ccc(Nc2nc(OC3CCCC3)c3c(-c4ccc5nc(C)oc5c4)c[nH]c3n2)c(OC)c1 19.3
